ASSAY DETAILS: Chromogenic reaction of degrading herbicides in bacteria: 2,4-D
Type: cell-based, Escherichia coli
STATED CONDITIONS: recombinant E. coli expressing the gene, 2,4-D added to the medium; red = phenols
MEASURE NAME: Chromogenic reaction of degrading herbicides in bacteria: 2,4-D

MOLECULE	TEST RESULT
QYD60: AAD-like candidate enzyme; 100.00% identical to US20160002662-0002 (protein, Synthetic polypeptide, QYD60, D60) MSPAFDIAPLDATFGAVVTGVKLADLDDAGWLDLQAAWLEYALLVFPDQHLTREQQIAFARRFGPLEFEMAAISNVRPDGSLRVESDNDDMMKILKGNMGWHADSTYMPVQAKGAVFSAEVVPSVGGQTGFADMRAAYDALDEDLKARVETLQARHSLHYSQSKLGHQTKAADGEYSGYGLHDGPVPLRPLVKIHPETGRKSLLIGRHAHAIPGLEPAESERLLQQLIDFACQPPRIYHHDWAPGDAVLWDNRCLLHQATPWDMTQKRIMWHSRIAGDPASETALAH	Yes
QYD52: AAD-like enzyme, SEQ ID NO. 103 (protein, Synthetic polypeptide, QYD52, D52) MTRTLDIEPIDATFGAVVRGIKVAEVDDETFRALYDAWLQYALLIFPDQHLQRDQQIAFAKRFGPLEFEMTAISNVRSDGTLRLEKDNDDVMKILKGNMGWHHDSTYMPVQAKGAVFSAEEVPTIGGRTGFADMRAAYDALDPAMKARIEGLNAYHSLHYSQGKVGHQTRKADGEYSGYGLHDGPVPLRPLVKTHPETGRKSLLAGRHAHNIPGLSQEASDSLLRELIDFACQPPRIYHHDWTPGDAVVWDNRCLMHQATPWDMTQRRIMWHSRIAGDPASESSLAA	Yes
QYD63: AAD-like candidate enzyme; 100.00% identical to US20140179534-0002 (protein, Synthetic polypeptide, QYD63, D63) MSSLELTPLHPLFAAEARGIDIRQPLSPSEVKQINAAMNRYAVLVWRGQPLTGQQQIDFAKAFGPLDLGLKKVFKRPERLEDERLIDISNVDAEGKVARRDSPKNLSNFANQLWHSDSSFQNPRAAYSMLHALVLPSWGGNTEFAELRAAYDALPERTRSEIEGLRAEHYALHTRILLGDEAYTDDQKKAIPPAVWPLAQTHPGSGRKLLFVGVHAREIIGWPVAEGRMFLSDLLEHATRREFVYTHEWQVGDLVMWDNRSTLHRGRRYDIGERRELRRTTIEDVPEATLMAA	Yes
QYD73: AAD-like enzyme, SEQ ID NO. 145 (protein, Synthetic polypeptide, QYD73, D73) MARTFDVQPLDATFGAVISGVKLAALDDETWRELYATWLQYALLVFPGQHLSRDQQIAFARRFGPLEFEIIALSNVKSDGTIRSEVENDDVIKVLKGNMGWHADSTYMPVQAKGAVFTAEVVPSVGGQTGWADMRAAYDALDGATRQKVEQLSAYHSLHYSQSKLGHQHKPGSAYSGYGFHDGPVPLRPLVKTHPETGRKSLLIGRHAHNIPGMDKDESARFLEDLVASACQPPRIYHHTWAAGDAVVWDNRCLLHQATPWDMTQPRVMWHSRIAGDPLSEAALG	Yes
QYD2: AAD-like candidate enzyme; 100.00% identical to US20170009214-0019 (AAD2) (protein, Synthetic polypeptide, QYD02, D2) MTIAIRQLQTHFVGQVSGLDLRKPLTPGEAREVESAMDKYAVLVFHDQDITDEQQMAFALNFGQREDARGGTVTKEKDYRLQSGLNDVSNLGKDGKPLAKDSRTHLFNLGNCLWHSDSSFRPIPAKFSLLSARVVNPTGGNTEFADMRAAYDALDDETKAEIEDLVCEHSLMYSRGSLGFTEYTDEEKQMFKPVLQRLVRTHPVHRRKSLYLSSHAGKIASMSVPEGRLLLRDLNEHATQPEFVYVHKWKLHDLVMWDNRQTMHRVRRYDQSQPRDMRRATVAGTEPTV	Yes
